# System: Escherichia coli TOP10
# TEST DESCRIPTION: shrunken log2 fold change of peptide-encoding DNA abundance (4.5 h post-induction vs induction); higher = less antimicrobial activity (less host growth inhibition)
# MEASUREMENT SETUP: time post-induction: 4.5 h; library: site-saturation at positions 5, 18, 19, 20
REPORTED METRIC: shrunken log2 fold change
Give a plain numeric answer without units written out.

Would you please look over these solved cases?
RRIRHRPPRLPRPRPRPRSQPRP = 0.136
RRIRARPPRLPRPRPRPSVQPRP = 0.629
RRIRRRPPRLPRPRPRPAVVPRP = 0.518
RRIRCRPPRLPRPRPRPHEIPRP = 0.322
RRIRDRPPRLPRPRPRPEPSPRP = 0.885

[in] Annotate the sequence RRIRIRPPRLPRPRPRPHEHPRP with its measured shrunken log2 fold change.
[out] -0.405

[in] Give the reported value of shrunken log2 fold change for this record: RRIRLRPPRLPRPRPRPVYVPRP
[out] -0.367

[in] Supply shrunken log2 fold change value. Item: RRIRGRPPRLPRPRPRPGDAPRP
[out] 1.09

[in] Answer with reported shrunken log2 fold change of RRIRGRPPRLPRPRPRPDKMPRP
[out] 0.261

[in] Kindly indicate its recorded shrunken log2 fold change. Item: RRIRHRPPRLPRPRPRPCWGPRP
[out] -0.137

[in] Specify measured shrunken log2 fold change for RRIRIRPPRLPRPRPRPVFRPRP .
[out] -0.169

[in] Identify measured shrunken log2 fold change corresponding to RRIRDRPPRLPRPRPRPYRLPRP
[out] -0.0389

[in] Give the reported shrunken log2 fold change for this sequence. RRIRTRPPRLPRPRPRPPQLPRP
[out] 0.0198

[in] Query shrunken log2 fold change for RRIRHRPPRLPRPRPRPSHPPRP
[out] 0.0558

[in] Give reported shrunken log2 fold change value for RRIRKRPPRLPRPRPRPHKIPRP
[out] 0.134

[in] Name the recorded shrunken log2 fold change of the item RRIRHRPPRLPRPRPRPVIFPRP in your answer.
[out] -0.395

[in] Give a short answer stating reported shrunken log2 fold change for RRIRQRPPRLPRPRPRPNWLPRP .
[out] 0.259

---

# Test system: Escherichia coli TOP10;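 further: peptides expressed intracellularly from a pBAD plasmid library in pooled LB shake-flask culture, induced with 0.3% L-arabinose, DNA abundance read by NGS, three biological replicates, DESeq2 with apeglm shrinkage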
# TEST DESCRIPTION: shrunken log2 fold change of peptide-encoding DNA abundance (4.5 h post-induction vs induction); higher = less antimicrobial activity (less host growth inhibition)
# MEASUREMENT SETUP: time post-induction: 4.5 h; library: site-saturation at positions 5, 18, 19, 20
Label true (1) when shrunken log2 fold change is at or above -0.05; anything below gets false (0).

Answered cases to consult:
RRIRFRPPRLPRPRPRPHRLPRP = true (1)
RRIRYRPPRLPRPRPRPASNPRP = false (0)
RRIRMRPPRLPRPRPRPSINPRP = true (1)
RRIRARPPRLPRPRPRPQNNPRP = false (0)
RRIRLRPPRLPRPRPRPEKAPRP = true (1)
RRIRLRPPRLPRPRPRPSSVPRP = true (1)

[in] Please indicate if the recorded shrunken log2 fold change for RRIRIRPPRLPRPRPRPWLRPRP meets or exceeds -0.05.
[out] false (0)

[in] Hello, I need to know if RRIRCRPPRLPRPRPRPTEMPRP has measured shrunken log2 fold change not below -0.05. Thanks!
[out] false (0)

[in] Does the reported shrunken log2 fold change for RRIRIRPPRLPRPRPRPAGAPRP fall at or above the -0.05 mark?
[out] true (1)

[in] Does RRIRKRPPRLPRPRPRPRIVPRP have a reported shrunken log2 fold change of at least -0.05?
[out] true (1)

[in] Reported shrunken log2 fold change at or above -0.05? RRIRLRPPRLPRPRPRPAQFPRP
[out] true (1)
